# study_system: T1, O15-bP
# T1 chain: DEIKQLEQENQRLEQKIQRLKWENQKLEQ
# method: two-hybrid library CCNG1;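 further: natural log of median RNA to DNA barcode read ratio; higher means stronger binding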
measured_endpoint: interaction score

Guide cases for interaction score, answers given:
[
  {
    "binder": "DKIKQLKQEIQRLEQENQRLEWENQKLEQ [O11-bP]",
    "interaction score": -0.41
  },
  {
    "binder": "DKNKQLKQENQRLEQEIQRLEWEIQKLEQ [O1-bP]",
    "interaction score": -1.88
  }
]

1. DEIAQLEQKIAELKQENAELKWKIAQLEQ [4H349-bA]
2. DKNKQLKQKIQRLKQKNQRLKWEIQKLEQ [O13-bP]
Which of the two items, 1 and 2 , has the greater recorded interaction score? Your choice should be expressed through its label. 1

I. DEIKQLEQKIQRLKQKNQRLKWKNQKLKQ [O12-bP]
II. DEIKQLEQENQRLEQKIQRLKWENQKLEQ [O15-bP]
Which of the two items, I and II , has the greater recorded interaction score? Your choice should be expressed through its label. II

A. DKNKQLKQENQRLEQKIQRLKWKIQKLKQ [O10-bP]
B. DENKQLEQEIQRLEQENQRLEWKIQKLKQ [O14-bP]
Which of the two items, A and B , has the greater recorded interaction score? Your choice should be expressed through its label. B
